Every entry's value here was drawn from patent US9452986B2.

Reported pIC50 is given for each of the following compounds.
# MEASURED TARGET: recombinant human Nav1.7 (Homo sapiens (Human))
# Sequence (Q15858 whole entry): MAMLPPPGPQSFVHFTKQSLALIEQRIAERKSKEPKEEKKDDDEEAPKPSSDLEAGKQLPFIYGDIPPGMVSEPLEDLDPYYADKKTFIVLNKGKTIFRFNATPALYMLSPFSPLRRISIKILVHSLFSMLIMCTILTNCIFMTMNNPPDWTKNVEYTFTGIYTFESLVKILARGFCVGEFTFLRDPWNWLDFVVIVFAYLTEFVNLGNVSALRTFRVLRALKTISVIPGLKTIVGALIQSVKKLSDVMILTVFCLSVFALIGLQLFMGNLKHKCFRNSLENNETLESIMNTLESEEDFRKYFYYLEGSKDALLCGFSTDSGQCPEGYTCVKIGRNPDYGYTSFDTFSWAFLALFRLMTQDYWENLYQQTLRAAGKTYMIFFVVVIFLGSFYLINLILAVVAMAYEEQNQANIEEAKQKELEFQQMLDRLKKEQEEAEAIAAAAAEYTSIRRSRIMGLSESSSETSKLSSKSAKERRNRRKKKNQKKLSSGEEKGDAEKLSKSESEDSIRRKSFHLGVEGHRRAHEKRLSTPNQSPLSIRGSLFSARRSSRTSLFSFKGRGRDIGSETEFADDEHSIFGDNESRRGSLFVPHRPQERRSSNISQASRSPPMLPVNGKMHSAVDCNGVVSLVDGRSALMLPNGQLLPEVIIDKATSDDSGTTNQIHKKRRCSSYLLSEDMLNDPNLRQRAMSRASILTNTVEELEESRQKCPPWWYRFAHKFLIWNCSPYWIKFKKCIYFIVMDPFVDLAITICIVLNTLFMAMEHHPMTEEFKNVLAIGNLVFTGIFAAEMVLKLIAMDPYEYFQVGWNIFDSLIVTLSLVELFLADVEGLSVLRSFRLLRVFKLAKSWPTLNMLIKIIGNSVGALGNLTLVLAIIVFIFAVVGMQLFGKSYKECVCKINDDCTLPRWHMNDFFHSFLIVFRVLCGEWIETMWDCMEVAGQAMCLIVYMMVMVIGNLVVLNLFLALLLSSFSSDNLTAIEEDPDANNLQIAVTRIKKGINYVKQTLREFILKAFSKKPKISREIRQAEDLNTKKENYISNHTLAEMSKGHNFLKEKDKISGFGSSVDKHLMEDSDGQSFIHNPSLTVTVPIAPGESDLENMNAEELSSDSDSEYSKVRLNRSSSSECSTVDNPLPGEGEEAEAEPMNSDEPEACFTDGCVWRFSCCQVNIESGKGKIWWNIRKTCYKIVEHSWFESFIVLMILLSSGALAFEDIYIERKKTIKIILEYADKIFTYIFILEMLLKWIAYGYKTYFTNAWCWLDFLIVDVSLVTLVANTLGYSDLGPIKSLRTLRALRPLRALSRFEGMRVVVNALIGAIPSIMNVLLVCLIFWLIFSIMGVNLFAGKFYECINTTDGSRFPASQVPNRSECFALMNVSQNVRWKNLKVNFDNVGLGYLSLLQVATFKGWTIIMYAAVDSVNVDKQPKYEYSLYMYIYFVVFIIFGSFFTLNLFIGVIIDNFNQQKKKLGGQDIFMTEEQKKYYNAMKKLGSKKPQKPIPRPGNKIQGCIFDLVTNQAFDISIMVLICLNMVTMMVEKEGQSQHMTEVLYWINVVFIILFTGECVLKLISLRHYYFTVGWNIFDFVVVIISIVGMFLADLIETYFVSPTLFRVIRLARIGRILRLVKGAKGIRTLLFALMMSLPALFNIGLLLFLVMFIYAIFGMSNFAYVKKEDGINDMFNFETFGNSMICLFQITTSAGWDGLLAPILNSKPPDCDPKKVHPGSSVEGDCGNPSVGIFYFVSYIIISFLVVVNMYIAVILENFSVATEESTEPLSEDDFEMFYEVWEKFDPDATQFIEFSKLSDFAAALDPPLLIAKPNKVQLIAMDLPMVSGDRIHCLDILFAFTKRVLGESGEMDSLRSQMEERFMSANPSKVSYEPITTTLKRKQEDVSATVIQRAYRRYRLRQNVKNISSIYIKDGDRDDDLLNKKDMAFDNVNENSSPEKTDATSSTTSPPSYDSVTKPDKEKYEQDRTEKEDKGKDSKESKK
# TEST DESCRIPTION: FRET-based membrane potential assay, recombinant human sodium channel Nav1.7
# Format: cell-based
# APPLIED CONDITIONS: read-out: FRET-Membrane Potential Nav1.7 IC50
// pIC50 is dimensionless: -log10 of concentration (M)

## Input Need pIC50 of CC(CO)NC(=O)c1ccc2cc(Oc3ccc(C#N)cc3)ccc2n1 (centres unmarked) , thanks.
## Output 5.39

## Input # query: pIC50 of entry O=C(NC1CC(F)(F)C1)c1ccc2cc(Oc3ccc(C(F)(F)F)cn3)ccc2n1
## Output 5.77

## Input May I ask what pIC50 has been recorded for COC[C@@H]1CN(C(=O)c2ccc3cc(Oc4ccc(C(F)(F)F)cn4)ccc3n2)CCN1 ?
## Output 6.62

## Input Record request: pIC50 value, item O=C(N[C@@H]1CS(=O)(=O)C[C@H]1O)c1ccc2cc(Oc3ccc(C(F)(F)F)cn3)ccc2n1
## Output 5.80

## Input Endpoint output: pIC50 of CON=C1CCN(C(=O)c2ccc3cc(Oc4ccc(C(F)(F)F)cn4)ccc3n2)CC1 . Value?
## Output 5.44
